Recorded values, source patent US20250368648A1.

# System: THP1 cells
# TEST_DETAILS: Combination drug screening, Cell Titer Glo, THP1 cells;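 further: luminescence read out in 1536-well plates seeded with 500 THP1 cells per well, each drug spanning a 10-point concentration range in the combination matrix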
# RUN_PARAMETERS: sum score; listed as compound in combination with Quizartinib (a FLT3/Kit/PDGFRa inhibitor); THP1 cells; 10 × 10 dataset; 48 hours
PARAMETER: Excess HSA Score
// no unit, no text: just the number

Recorded results for 2 compounds are shown here.
COMPOUND | STUDY_TARGET | Excess HSA Score
C[C@]12C=CC(=O)C=C1CC[C@@H]1[C@@H]2[C@@H](O)C[C@@]2(C)[C@H]1CC[C@]2(O)C(=O)CO [Prednisolone, prednisolone] | THP1 cells | −81.1
CC(C)[C@@H](CS(=O)(=O)C(C)C)N1C(=O)[C@@](C)(CC(=O)O)C[C@H](c2cccc(Cl)c2)[C@H]1c1ccc(Cl)cc1 [AMG-232, navtemadlin] | THP1 cells | −91.44

Input line: Need Excess HSA Score, item CCN(C(=O)c1cc(F)ccc1Oc1cncnc1N1CC2(CCN(C[C@H]3CC[C@H](NS(=O)(=O)CC)CC3)CC2)C1)C(C)C [SNDX-5613]
Output line: 413.2

Input line: Give the measured Excess HSA Score of CC(=O)c1c(C)c2cnc(Nc3ccc(N4CCNCC4)cn3)nc2n(C2CCCC2)c1=O [Palbociclib] .
Output line: −794.7

Input line: For the compound N#Cc1ccnc(N2C(=O)CC[C@H]2C(=O)N(c2cncc(F)c2)[C@H](C(=O)NC2CC(F)(F)C2)c2ccccc2Cl)c1 [Ivosidenib, ivosidenib] , what Excess HSA Score is on record?
Output line: 177.8

Input line: Find the recorded Excess HSA Score belonging to NC1(C(=O)N[C@@H](CCO)c2ccc(Cl)cc2)CCN(c2nc[nH]c3nccc2-3)CC1 [AZD-5363, capivasertib] and report it.
Output line: 17.2569

Input line: Find the recorded Excess HSA Score belonging to COc1cc(F)ccc1-c1cc(Nc2cc(CS(C)(=N)=O)ccn2)ncc1F (single isomer, unassigned; (+)) [(+)-BAY-1251152, BAY1251152] and report it.
Output line: 454.7

Input line: For the compound CC(C)Nc1cc(-c2c[nH]c(C(=O)N[C@H](CO)c3cccc(Cl)c3)c2)c(Cl)cn1 [Ulixertinib, ulixertinib] , what Excess HSA Score is on record?
Output line: −530.2

Input line: Given the entry CC1(C)CCC(CN2CCN(c3ccc(C(=O)NS(=O)(=O)c4ccc(NCC5CCOCC5)c([N+](=O)[O-])c4)c(Oc4cnc5[nH]ccc5c4)c3)CC2)=C(c2ccc(Cl)cc2)C1 [Venetoclax (ABT-199), Venetoclax] , report its measured Excess HSA Score.
Output line: −216

Input line: Excess HSA Score lookup needed for Nc1cccc2c1CN(C1CCC(=O)NC1=O)C2=O (stereo not drawn) [Lenalidomide] , thanks.
Output line: 472.5204

Input line: Give the measured Excess HSA Score of COCC1(CO)C(=O)C2CCN1CC2 (stereo not drawn) [Eprenetapopt/APR-246, APR-246 (Eprenetapopt)] .
Output line: 437.691

Input line: Please report the recorded Excess HSA Score for C[C@@H]1OCC2(CCN(c3cnc(Sc4ccnc(N)c4Cl)c(N)n3)CC2)[C@@H]1N [TNO-155] .
Output line: 587.7

====

# System: MOLM14 (D835Y) cells
# TEST_DETAILS: Combination drug screening, Cell Titer Glo, MOLM14 (D835Y) cells;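 further: MOLM14 cells with FLT3 ITD plus D835Y, 500 per well in 1536-well plates, 10-point dose ranges, luminescent viability after 48 h, negative Excess HSA indicates synergy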
# RUN_PARAMETERS: combination therapy of Compound 102 and the named additional compound; MOLM14(D835Y) cells; 10 × 10 dataset
Hi! Could you tag entries with Sum Excess HSA Score below -700 as class 1, and those at or above as class 0? Much appreciated.

Example entries begin here.
COMPOUND | CLASS_NAME
CC(C)Nc1cc(-c2c[nH]c(C(=O)N[C@H](CO)c3cccc(Cl)c3)c2)c(Cl)cn1 [Ulixertinib, ulixertinib] | class 1
COCC1(CO)C(=O)C2CCN1CC2 (stereo not drawn) [Eprenetapopt/APR-246, APR-246 (Eprenetapopt)] | class 0
C[C@@H]1OCC2(CCN(c3cnc(Sc4ccnc(N)c4Cl)c(N)n3)CC2)[C@@H]1N [TNO-155] | class 0

Input line: Field: below-cutoff. Rule: recorded Sum Excess HSA Score strictly less than -700. Subject: CC(=O)c1c(C)c2cnc(Nc3ccc(N4CCNCC4)cn3)nc2n(C2CCCC2)c1=O [Palbociclib]
Output line: class 0

Input line: Could you please tell me whether Sum Excess HSA Score recorded for CC1(C)CCC(CN2CCN(c3ccc(C(=O)NS(=O)(=O)c4ccc(NCC5CCOCC5)c([N+](=O)[O-])c4)c(Oc4cnc5[nH]ccc5c4)c3)CC2)=C(c2ccc(Cl)cc2)C1 [Venetoclax (ABT-199), Venetoclax] is less than -700?
Output line: class 1
